Ref: patent US20080085893A1

Let's look at some molecules and their measured pIC50.
Molecular target: human MMP-2 (amino acids 1-660) (Homo sapiens, UniProt P08253)
Construct: human MMP-2 (amino acids 1-660); made in house
Sequence (P08253 110-660): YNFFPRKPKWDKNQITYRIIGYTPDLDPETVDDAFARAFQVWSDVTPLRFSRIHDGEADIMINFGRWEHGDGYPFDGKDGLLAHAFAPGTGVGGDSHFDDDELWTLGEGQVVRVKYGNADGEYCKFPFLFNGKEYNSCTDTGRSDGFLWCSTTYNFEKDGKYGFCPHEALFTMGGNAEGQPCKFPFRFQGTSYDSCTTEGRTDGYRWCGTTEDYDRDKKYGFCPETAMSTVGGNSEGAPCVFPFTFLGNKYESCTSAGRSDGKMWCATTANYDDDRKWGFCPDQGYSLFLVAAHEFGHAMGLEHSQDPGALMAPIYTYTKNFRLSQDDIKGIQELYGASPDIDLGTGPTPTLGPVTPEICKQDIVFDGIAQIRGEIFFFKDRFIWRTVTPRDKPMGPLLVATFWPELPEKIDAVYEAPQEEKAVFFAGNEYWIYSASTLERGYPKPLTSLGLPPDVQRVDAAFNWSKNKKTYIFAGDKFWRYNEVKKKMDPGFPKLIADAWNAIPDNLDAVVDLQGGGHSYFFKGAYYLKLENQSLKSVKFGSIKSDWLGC
Assay: MMP dose response assay for determining IC50, MMP-2
Assay type: biochemical
Settings: recombinant enzyme, fluorescent-quench substrate 100 nM; read-out: MMP-2
On this scale, pIC50 is minus log10 of a concentration expressed in M (mol/L).

Illustrative cases are given below, each with its answer.
Cc1ccc(Oc2ccc(N(C[C@H](Nc3cccc(C(F)(F)F)c3)C(=O)NO)S(C)(=O)=O)cc2)cc1; 6.17
COc1ccc(N[C@@H](CN(c2ccc(Oc3ccc(C)cc3)cc2)S(C)(=O)=O)C(=O)NO)cc1; 7.73
CC(C)N[C@@H](CN(c1ccc(Oc2ccc(C(F)(F)F)cc2)cc1)S(C)(=O)=O)C(=O)NO; 8.04
CS(=O)(=O)N(C[C@H](O)C(=O)NO)c1ccc(C#Cc2ccc(Cl)cc2)cc1; 7.25
CS(=O)(=O)N(C[C@H](O)C(=O)N(O)CCN1CCOCC1)c1ccc(Oc2ccc(Cl)cc2)cc1; 5.85

Reported pIC50 of CC(C)N(Cc1ccccc1)[C@@H](CN(c1ccc(Oc2ccc(C(F)(F)F)cc2)cc1)S(C)(=O)=O)C(=O)NO : 6.55

Reported pIC50 of CC(C)N[C@@H](CN(c1ccc(Oc2ccc(C(F)(F)F)cn2)cc1)S(C)(=O)=O)C(=O)NO : 6.40

Reported pIC50 of Cc1ccc(Oc2ccc(N(C[C@H](O)C(=O)NO)S(=O)(=O)Cc3ccccc3)cc2)cc1 : 6.24

Reported pIC50 of Cc1ccc(Oc2ccc(N(C[C@H](N)C(=O)NO)S(C)(=O)=O)cc2)cc1 : 6.17

Reported pIC50 of COC[C@H]1CCCN1[C@@H](CN(c1ccc(Oc2ccc(C(F)(F)F)cc2)cc1)S(C)(=O)=O)C(=O)NO : 7.85

Reported pIC50 of Cc1ccc(Oc2ccc(N(C[C@@H](C(=O)NO)N3C[C@@H](C)O[C@@H](C)C3)S(C)(=O)=O)cc2)cc1 : 8.55

----------
Target: human MMP-9 (amino acids 107-446) (Homo sapiens)
Construct: human MMP-9 (amino acids 107-446); made in house
Experiment: MMP dose response assay for determining IC50, MMP-9
Assay type: biochemical
Settings: recombinant enzyme, fluorescent-quench substrate 100 nM; read-out: MMP-9
propertyName: IC50 (nM)
Please respond with the number in nM and leave the unit unwritten.

Illustrative cases are given below, each with its answer.
Cc1ccc(Oc2ccc(N(C[C@H](NCc3ccccn3)C(=O)NO)S(C)(=O)=O)cc2)cc1; 22.9
COc1cccc(N[C@@H](CN(c2ccc(Oc3ccc(C)cc3)cc2)S(C)(=O)=O)C(=O)NO)c1; 0.62
Cc1ccc(Oc2ccc(N(C[C@H](Nc3cccc(C(F)(F)F)c3)C(=O)NO)S(C)(=O)=O)cc2)cc1; 58.3
CS(=O)(=O)N(C[C@@H](C(=O)NO)N1CCOCC1)c1ccc(Oc2ccc(C(F)(F)F)cn2)cc1; 227
CS(=O)(=O)N(C[C@H](O)C(=O)NO)c1ccc(C#Cc2cccs2)cc1; 774
Cc1ccc(Oc2ccc(N(C[C@H](Nc3ccc(F)c(Cl)c3)C(=O)NO)S(C)(=O)=O)cc2)cc1; 19.9

Reported IC50 of CC(C)CC#Cc1ccc(N(C[C@@H](C(=O)NO)N2CCOCC2)S(C)(=O)=O)cc1 : 113

Reported IC50 of Cc1ccc(Oc2ccc(N(C[C@H](Nc3ccc(F)cc3)C(=O)NO)S(C)(=O)=O)cc2)cc1 : 1.32

Reported IC50 of Cc1ccc(Oc2ccc(N(C[C@H](NCC(C)C)C(=O)NO)S(C)(=O)=O)cc2)cc1 : 1.27

Reported IC50 of CS(=O)(=O)N(C[C@H](Nc1cccc(F)c1)C(=O)NO)c1ccc(Oc2ccc(C(F)(F)F)cc2)cc1 : 31.9

Reported IC50 of Cc1ccc(Oc2ccc(N(C[C@H](NC3CCCC3)C(=O)NO)S(C)(=O)=O)cc2)cc1 : 1.69

Reported IC50 of CS(=O)(=O)N(C[C@@H](C(=O)NO)N1CCC(c2ccccc2)CC1)c1ccc(Oc2ccc(C(F)(F)F)cc2)cc1 : 17

Reported IC50 of CS(=O)(=O)N(C[C@@H](C(=O)NO)N1CCN(c2ccc(Cl)cc2)CC1)c1ccc(Oc2ccc(C(F)(F)F)cc2)cc1 : 256

Reported IC50 of CS(=O)(=O)N(C[C@H](NC(=O)C1CCOCC1)C(=O)NO)c1ccc(Oc2ccc(C(F)(F)F)cc2)cc1 : 54.1

Reported IC50 of Cc1ccc(Oc2ccc(N(C[C@H](O)C(=O)NO)S(=O)(=O)Cc3ccccc3)cc2)cc1 : 92.9

----------
Target: human MMP-9 (amino acids 107-446) (Homo sapiens, UniProt P14780)
Construct: human MMP-9 (amino acids 107-446); made in house
Sequence (P14780 107-446): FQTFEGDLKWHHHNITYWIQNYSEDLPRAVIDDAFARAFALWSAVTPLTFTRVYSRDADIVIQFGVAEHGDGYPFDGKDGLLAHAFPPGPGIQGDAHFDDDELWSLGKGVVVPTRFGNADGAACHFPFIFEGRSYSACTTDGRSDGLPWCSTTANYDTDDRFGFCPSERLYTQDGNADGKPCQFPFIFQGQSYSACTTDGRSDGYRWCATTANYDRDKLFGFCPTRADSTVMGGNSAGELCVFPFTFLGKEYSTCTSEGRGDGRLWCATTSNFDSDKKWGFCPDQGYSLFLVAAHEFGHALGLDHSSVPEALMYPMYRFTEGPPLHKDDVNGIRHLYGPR
Test: MMP dose response assay for determining IC50, MMP-9
Type: biochemical
Conditions: MMP-9 (nM)
propertyName: IC50 (nM)
Please respond with the number in nM and leave the unit unwritten.

CO[C@H](CN(c1ccc(Oc2ccc(C)cc2)cc1)S(C)(=O)=O)C(=O)NO; 12.7

Reported IC50 of CO[C@@H](CN(c1ccc(Oc2ccc(C)cc2)cc1)S(C)(=O)=O)C(=O)NO : 3.73

----------
Molecular target: human MMP-9 (amino acids 107-446) (Homo sapiens)
Construct: human MMP-9 (amino acids 107-446); made in house
Test: MMP dose response assay for determining IC50, MMP-9
Format: biochemical
Conditions: recombinant enzyme, fluorescent-quench substrate 100 nM; read-out: MMP-9
propertyName: pIC50
On this scale, pIC50 is minus log10 of a concentration expressed in M (mol/L).

Illustrative cases are given below, each with its answer.
Cc1ccc(Oc2ccc(N(C[C@H](Nc3cccc(OC(F)(F)F)c3)C(=O)NO)S(C)(=O)=O)cc2)cc1; 6.78
Cc1ccc(Oc2ccc(N(C[C@@H](C(=O)NO)N3CCC(O)(c4ccc(Br)cc4)CC3)S(C)(=O)=O)cc2)cc1; 9.19
Cc1ccc(Oc2ccc(N(C[C@H](Nc3ccc(OC(F)(F)F)cc3)C(=O)NO)S(C)(=O)=O)cc2)cc1; 7.13

Reported pIC50 of CS(=O)(=O)N(C[C@H](O)C(=O)NO)c1ccc(Oc2ccc(C(F)(F)F)cn2)cc1 : 6.33

----------
Biological target: human MMP-9 (amino acids 107-446) (Homo sapiens, UniProt P14780)
Construct: human MMP-9 (amino acids 107-446); made in house
Assay: MMP dose response assay for determining IC50, MMP-9
Format: biochemical
Settings: recombinant enzyme, fluorescent-quench substrate 100 nM; read-out: MMP-9
propertyName: pIC50
On this scale, pIC50 is minus log10 of a concentration expressed in M (mol/L).

Illustrative cases are given below, each with its answer.
CC(C)O[C@@H](CN(c1ccc(Oc2ccc(C(F)(F)F)cc2)cc1)S(C)(=O)=O)C(=O)NO; 8.09
Cc1ccc(Oc2ccc(N(C[C@H](NCCc3c[nH]c4ccccc34)C(=O)NO)S(C)(=O)=O)cc2)cc1; 8.54
Cc1ccc(Oc2ccc(N(C[C@H](Nc3ccc(Cl)cc3)C(=O)NO)S(C)(=O)=O)cc2)cc1; 7.66
Cc1ccc(Oc2ccc(N(C[C@H](O)C(=O)NO)S(=O)(=O)N(C)C)cc2)cc1; 6.61
Cc1ccc(Oc2ccc(N(C[C@H](O)C(=O)NO)S(=O)(=O)C(C)C)cc2)cc1; 6.54
CS(=O)(=O)N(C[C@@H](C(=O)NO)N1CCC(O)CC1)c1ccc(Oc2ccc(Cl)cc2)cc1; 9.05

Now for a further molecule.
Lab note: molecule CC(C)N(CCN1C(=O)N(C)C(C)(C)C1=O)[C@@H](CN(c1ccc(Oc2ccc(C(F)(F)F)cc2)cc1)S(C)(=O)=O)C(=O)NO tested on human MMP-9 (amino acids 107-446) (Homo sapiens, UniProt P14780); recorded pIC50 was 8.57
